src = ChEMBL document CHEMBL1240400

MIC50 values by entry
System: Pseudomonas aeruginosa
Test: Antibacterial activity against Pseudomonas aeruginosa by broth dilution method
Assay type: functional

// known answers, use as guide
Note to self: MIC50 of "CO/N=C(\C(=O)N[C@@H]1C(=O)N2C(C(=O)[O-])=C(C[N+]3(C)CCCC3)CS[C@H]12)c1csc(N)n1" with Pseudomonas aeruginosa was > 8 µg/mL

Note to self: MIC50 of CCN1CCN(C(=O)N[C@@H](C(=O)N[C@@H]2C(=O)N3[C@@H]2SC(C)(C)[C@@H]3C(=O)O)c2ccccc2)C(=O)C1=O [PIPERACILLIN] with Pseudomonas aeruginosa was 128 µg/mL

Note to self: MIC50 of CO/N=C(\C(=O)N[C@@H]1C(=O)N2C(C(=O)O)=C(CSc3nc(=O)c(O)nn3C)CS[C@H]12)c1csc(N)n1 [CEFTRIAXONE] with Pseudomonas aeruginosa was > 8 µg/mL

Then this compound:
Note to self: MIC50 of COc1c(N2C[C@@H]3CCCN[C@@H]3C2)c(F)cc2c(=O)c(C(=O)O)cn(C3CC3)c12 [MOXIFLOXACIN] with Pseudomonas aeruginosa was > 8 µg/mL
